As shown below, each of these compounds has a reported growth value.
# Test system: NCI-H322M lung
# procedure.text: NCI-60 one-dose screen, 48 h (100 = growth as untreated, 0 = no growth, -100 = all killed)
# condition: 10 µM unless noted
This is part of a sample that, as a whole, favours compounds with a hit. Of some 83,000 tested, about 20% had one in any assay. Activity calls are given as the source filed them. The calls were made as follows: active = growth percent below 10; inactive = the rest.

compound | growth
Cn1cc(C(=O)c2nc(-c3c[nH]c4ccccc34)no2)c2cc(F)ccc21 | 62.3% (inactive)
CCOC(=O)NC(C)C | 107% (inactive)
CCOC(=O)C1=C(c2ccccc2)N=C2SC=C(c3ccc(Cl)cc3)N2C1c1ccc(Br)cc1 (centres undefined) | 90.9% (inactive)
OCCn1cc(-c2nc(-c3c[nH]c4ncccc34)cs2)c2ccccc21 | 74.8% (inactive)
Cn1c(=O)c2nc(/C=C/c3ccccc3)c(=O)[nH]c2n(C)c1=S | 99.7% (inactive)
COC(=O)CC[C@H](C)[C@H]1CC[C@H]2[C@@H]3CC[C@@H]4CC5(CC[C@]4(C)[C@H]3CC(=O)[C@]12C)Nc1ccccc1NC5=NC(C)(C)C (some centres undefined) | 95.6% (inactive)
C=C1CC[C@@H]2[C@](C)(COC(C)=O)[C@H](OC(C)=O)CC[C@@]2(C)[C@@H]1CC(Nc1ccc(S(=O)(=O)Nc2ncccn2)cc1)C1=CCOC1=O (some centres undefined) | 50.9% (inactive)
O=C(CN1CCCCC1)Nc1nc(-c2cc3ccccc3oc2=O)cs1 | 93.9% (inactive)
O=C(C[C@]1(O)C(=O)Nc2ccccc21)c1cccc(C(F)(F)F)c1 | 84.4% (inactive)
NNc1nc(-c2cccnc2)nc2c1sc(=S)n2-c1ccccc1 | 101% (inactive)
CCCNC(=O)Nc1ccc2cc3ccc(NC(=O)NCCC)cc3nc2c1 | 100% (inactive)
O=CN1N=C(c2cccc(Nc3ccnc4cc(Cl)ccc34)c2)CC1c1ccccc1 (centres undefined) | 71.8% (inactive)
Cc1nc2sc(C(=O)Nc3cccc(Br)c3)c(N)c2cc1C(O)c1ccccc1 (centres undefined) | 61% (inactive)
C#CCOc1cccc(Nc2ncnc3cc(NC(=O)C=C)ccc23)c1 | 50.3% (inactive)
Cc1sc2nc(NCCc3c[nH]c4ccc(Cl)cc34)[nH]c(=O)c2c1C | 61.2% (inactive)
COc1ccc(-c2cc(-c3ccc(Cl)cc3)c(C#N)c(=O)n2Cc2ccc(C(=O)Nc3ccccc3N)cc2)cc1 | 89.3% (inactive)
NS(=O)(=O)c1ccc(N=Nc2c(O)n(Cc3ccccc3)c3ccc(Cl)cc23)cc1 | 84% (inactive)
CCCCNC(=O)Oc1ccc(/C(=C(/C)Cc2ccc(OC)cc2)c2ccc(OCCN3CCCC3)cc2)cc1 | 81.6% (inactive)
Nc1ncnc2c1C(c1ccccc1)c1ccc3ccccc3c1O2 (centres undefined) | 88% (inactive)
Nc1nc(-c2ccc(Cl)cc2)nc2c1sc(=S)n2-c1ccccc1 | 45.7% (inactive)
N#Cc1ccc(O)c(C2=NCC(c3cccc(Oc4ccccc4)c3)O2)c1 (centres undefined) | 41.7% (inactive)
Cn1ccnc1C(=O)/C=C/c1ccc(C(=O)Nc2ccccc2O)cc1 | 45.3% (inactive)
Nc1n[nH]c2cccc(C#Cc3cccc(C(=O)Nc4cc(C(F)(F)F)cc(C(F)(F)F)c4)c3)c12 | 96.7% (inactive)
CCCn1cc2c(=O)nc3sc(Cc4ccccc4)c(C)n3c2n1 | 98.5% (inactive)
COc1ccc(/C=C/C(=O)c2ccc(Nc3ccnc4cc(Cl)ccc34)cc2)cc1 | 131% (inactive)
Cc1ccccc1/C=C/C(=O)c1cccc(OCCCOc2cccc(C(=O)/C=C/c3ccccc3C)c2)c1 | 106% [3 µM] (inactive)
CCOC(=O)C(=O)C(C(=O)OCC)c1ccccc1 (centres undefined) | 110% (inactive)
CCc1ncnc2c1ccn2C(C)c1ccc(OC)c(F)c1 (centres undefined) | 79.7% (inactive)
COc1ccc(OC)c(Nc2nnc(-c3ccc(O)c(OC)c3)o2)c1 | 86.9% (inactive)
C=C(CBr)[C@@H]1CC[C@]2(C(=O)O)CC[C@]3(C)[C@H](CC[C@@H]4[C@@]5(C)CCC(=O)C(C)(C)[C@@H]5CC[C@]43C)[C@@H]12 | 92.2% (inactive)
COc1ccc(-c2cc(-c3cc(OC)c(OC)c(OC)c3)c(C#N)c(=O)n2CCCCC(=O)NO)cc1 | 75.1% (inactive)
CCOC(=O)c1cc(C)n(-c2ccc(C(=O)O)cc2)c1C | 114% (inactive)
O=C1NC(=O)C(Cc2ccc(OCc3ccc(-c4ccc(Cl)cc4Cl)cc3)cc2)S1 (centres undefined) | 90.8% (inactive)
O=C(CN1CCOCC1)Nc1nc(-c2cc3ccccc3oc2=O)cs1 | 100% (inactive)
COc1ccc(/C=C/C(=O)c2cccc(OCCCCOc3cccc(C(=O)/C=C/c4ccc(OC)c(OC)c4)c3)c2)cc1OC | 87.3% (inactive)
O=C(Nc1nc2cc(C(=O)N3CCN(C(c4ccccc4)c4ccccc4)CC3)ccc2o1)c1ccc(NC2CCCCC2)c([N+](=O)[O-])c1 | 59.4% (inactive)
COc1cc2oc(-c3cccc(NC(=O)c4ccccc4)c3)cc(=O)c2c(OC)c1OC | 83.8% (inactive)
COC(=O)c1cc(N=C2NC(=O)/C(=C/C=C/c3ccccc3)S2)ccc1O | 47.2% (inactive)
Cc1nc2sc(C(=O)Nc3ccc(Br)cc3)c(N)c2cc1C(O)c1ccccc1 (centres undefined) | 90.4% (inactive)

###

# Test system: UACC-257 melanoma
# procedure.text: NCI-60 one-dose screen, 48 h
# condition: 10 µM unless noted
This is part of a sample that, as a whole, favours compounds with a hit. Of some 83,000 tested, about 20% had one in any assay. Active and inactive are the calls of the source. The calls were made as follows: active = growth percent below 10; inactive = the rest.
Possible outcomes: t for active, f for inactive

compound | discrete.label
Nc1cc(C(=O)NC[C@H]2CN(c3ccc(N4CCC(C(=O)O)CC4)cc3)C(=O)O2)ccc1Cl | f
O=C(Nc1ccccc1)Nc1ncnc2c1ncn2-c1ccc(Cl)cc1 | f
COc1ccc(OC)c(Nc2nnc(-c3ccc(O)c(OC)c3)o2)c1 | f
Cc1nc2sc(C(=O)Nc3ccc(Br)cc3)c(N)c2cc1C(O)c1ccccc1 (configuration not stated) | f
CCN1C(=S)N(c2ccccc2)C2C1NN=c1s/c(=C3\C(=O)N(C(C)C)c4ccccc43)c(=O)n12 (configuration not stated) | f
Cc1ccccc1/C=C/C(=O)c1cccc(OCCCOc2cccc(C(=O)/C=C/c3ccccc3C)c2)c1 | f
COC(=O)CC[C@H](C)[C@H]1CC[C@H]2[C@@H]3CC[C@@H]4CC5(CC[C@]4(C)[C@H]3CC(=O)[C@]12C)Nc1ccccc1NC5=NC(C)(C)C (some centres not stated) | f
O=C(Nc1ccc(Oc2cccc(F)c2)c(Cl)c1)c1cccnc1 | f
COc1cc2c(c(OC)c1OC)CCC(c1cccc(C(=O)Nc3cccc(Cl)c3)c1)O2 (configuration not stated) | f
Cc1cccc(/C=C/c2c(C(=O)/C=C/c3ccccc3)c(C)nc3ccccc23)c1 | t
CN(C)Cc1ccc(O)c(C(=O)O)c1 | f
O=C(Nc1cccc2ccccc12)NC1CC1 | f

###

# Tested on: HS 578T breast
# procedure.text: NCI-60 one-dose screen, 48 h (100 = growth as untreated, 0 = no growth, -100 = all killed)
# condition: 10 µM unless noted
Compounds without any hit were thinned out: in the full panel of roughly 83,000, 20% have a hit.

smiles.record | growth (%)
CCCCCCCCCCCCCCCCCCOc1ccccc1CC(=O)OCC[N+](C)(C)C | 17.1
N=C(N)c1ccc(-c2ccc(-c3ccc(Cl)cc3Cl)s2)cc1 | 71.6
NC(N)=NCCCCCNc1noc(Cc2c[nH]c3cc(Br)ccc23)n1 | 56.9
O=C(CSc1nc2ccc([N+](=O)[O-])cc2[nH]1)Nc1ccc([N+](=O)[O-])cc1 | 31.7
CC(C)c1ccc(C(=O)Nc2nc3ccc(O)c(CN(C)C)c3s2)cc1 | 86.8

###

# Test system: NCI-H23 lung
# procedure.text: NCI-60 one-dose screen, 48 h (100 = growth as untreated, 0 = no growth, -100 = all killed)
# condition: 10 µM unless noted
# Method: Growth inhibition of the NCI-H23 human Non-Small Cell Lung tumor cell line is measured as a screen for anti-cancer activity. Cells are grown in 96 well plates and exposed to the test compound for 48 hours. Compounds are tested at a single concentration, which is 10^-5 M for most compounds. The reported endpoint is percent growth (GI% or GIPRCNT), where numbers from 0 - 100% represent growth inhibition, and numbers from -100% - 0 represent cell death. […]
Compounds without any hit were thinned out: in the full panel of roughly 83,000, 20% have a hit.
recorded.endpoint: growth (%)

compound | u | quantitative.result
CC(=O)N1N=C(c2ccc(C(F)(F)F)c(F)c2)CC1c1[nH]c(C)c(C(=O)NCC(F)(F)F)c1C (stereo not given) | % | 78.8
Nc1nc2ccc(-c3nc4ccc5[nH]ncc5c4c4c3CCCC4)cc2s1 | % | 100
O=C1C(Cl)=C(NCCCCCCNC2=C(Cl)C(=O)c3ccccc3C2=O)C(=O)c2ccccc21 | % | 61.8
COc1cc(OC)c(/C=C/C(=O)c2c(OC)cccc2OC)c(OC)c1 | % | -22
C#CCOC(=O)/C=C/c1cn(-c2ccccc2)nc1-c1ccc(OC)cc1 | % | 89.1
COc1c(B(O)O)cccc1-c1cc(C)c2c(ccc3[nH]ncc32)n1 | % | 78.4
CCSc1nc2scc(C)c2c(=O)[nH]1 | % | 95.1
O=C1/C(=C/c2cccc(F)c2)CN(C(=O)C(Cl)Cl)C/C1=C\c1cccc(F)c1 | % | -75.3
CC(C)c1ccc(C(=O)Nc2sc3c(c2C(N)=O)CCC(=O)C3)cc1 | % | -7.38
CCOC(=O)c1cc(C)n(-c2ccc(C(=O)O)cc2)c1C | % | 89.4
